Cited source: patent US5053431A

Test system: [^3 H]TdR incorporation into DNA in HL-60 cells
PROTOCOL DESCRIPTION: Inhibition of [3H]TdR incorporation into DNA in HL-60 cells (initial 30 min)
Type: cell-based, human
REPORTED CONDITIONS: Homo sapiens, 0.5 h; HL-60, initial 30 min exposure; read-out: ID50, M (HL-60 TdR into DNA (B))
MEASURE NAME: IC50 (µM)

Worked examples follow.
| MOLECULE SMILES | READOUT UNIT | IC50 |
| --- | --- | --- |
| COc1cc(O)c2c(c1)C(=O)c1cc(CNCCO)cc(O)c1C2=O | µM | 12 |
| CN(C)Cc1cc(O)c2c(c1)C(=O)c1cccc(O)c1C2=O | µM | 9.3 |

[P] CCN(CC)Cc1cc(O)c2c(c1)C(=O)c1cccc(O)c1C2=O
[Q] COc1cccc2c1C(=O)c1c(OC)cc(C(Br)Br)cc1C2=O
[R] COc1cccc2c1C(=O)c1c(OC)cc(CNCCO)cc1C2=O
Please give the order of these compounds when sorted by IC50, largest value leading. I'd appreciate it if you listed the labels in the requested order.
R, P, Q
